Test system: PPARg:RXRa 270nM:90nM, anti-RXR (NR concentration 270 nM, RXRa partner concentration 90 nM)
Test: PBM binding z-score (relative to random genomic background probes); higher = stronger binding; sequences stand for … in GC…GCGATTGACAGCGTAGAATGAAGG
Outcome: label 1 for PBM binding z-score of at least 7; label 0 for anything lower.

Consider the following illustrative entries.
{"Input Sequence": "TAGCCTAGGTCATTCAGGGGCTAGTATAGAAAGC", "Category": "label 0"}
{"Input Sequence": "CGAACTAGGTTAAAGGACAGTGAAAGGCGACGTA", "Category": "label 1"}
{"Input Sequence": "CCCACTGGGGCAAAGGTTACCATACTCAGTACGA", "Category": "label 1"}
{"Input Sequence": "ATATGTAGGTTACGGTCATTCAGAAAGTAGGGAA", "Category": "label 0"}
{"Input Sequence": "CCTAGTTGGTCAAGCTCACACACGCTATAGGTAC", "Category": "label 0"}
{"Input Sequence": "ACTCGGAGGACAAAGGTGAGAGCTACGCCAGTGA", "Category": "label 0"}
{"Input Sequence": "CTATGTAGGTTAAGGGGGTCATTTAGTTTGAAAG", "Category": "label 1"}
{"Input Sequence": "CCTACTGGGCCATTCAGAGGTTATTGATCATATG", "Category": "label 0"}
{"Input Sequence": "CGAACTAGGTCACCAGGACAGTTAAGAGGTTGGA", "Category": "label 0"}
{"Input Sequence": "CCTACTGGGCCAAAGGACATTGATTCCAATGCTC", "Category": "label 0"}

*Q* Check the entry `TAGCCTAGGTCAGATCGGGCCAGTCTACGCTATA` : does PBM binding z-score equal or exceed 7?
*A* label 0

*Q* Check the entry `ATATGTATGTTAGGGTCATTCAGAAAGTAGGGAA` : does PBM binding z-score equal or exceed 7?
*A* label 0

*Q* Check the entry `TTATCAAGGTGAAAGGTCGTTGATGCACGCCTTG` : does PBM binding z-score equal or exceed 7?
*A* label 1

*Q* Check the entry `CGAACTAGGTCAAAGGACAGTGAAAGGCGACGTA` : does PBM binding z-score equal or exceed 7?
*A* label 1

*Q* Check the entry `CTATGTAGGTTAAGGGGGTCATTGAGTTTGAAAG` : does PBM binding z-score equal or exceed 7?
*A* label 1

*Q* Check the entry `CCGAGTAGGTTCCGAGGGGGCATTCAGTGCGAAT` : does PBM binding z-score equal or exceed 7?
*A* label 0

*Q* Check the entry `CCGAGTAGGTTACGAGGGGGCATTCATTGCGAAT` : does PBM binding z-score equal or exceed 7?
*A* label 0
